Quick list: Met Kinase % Inhibition per entry.
Test system: MET
Assay info: MET biochemical kinase assay
Design: species or system human; concentration or dose not given beside the values
Only the number, expressed in %, is required.

compound_smiles=O=C1Nc2ccc(CCCl)cc2C1=Cc1cccn1-c1ccc(Cl)cc1 numeric_value=-2.8

Input CNS(=O)(=O)c1ccc2c(c1)C(=Cc1cccc(C(F)(F)F)c1F)C(=O)N2 . Output Met Kinase % Inhibition: 21.8

Input O=C1Nc2ccc(S(=O)(=O)Nc3ccc(C(F)(F)F)cc3)cc2C1=Cc1ccc2c(c1)Cc1ccccc1-2 . Output Met Kinase % Inhibition: 26.4

Input COc1ccc(C=C2C(=O)Nc3ccc(CCCl)cc32)cc1OC . Output Met Kinase % Inhibition: 5.0

Input CC(=O)n1cc(C=C2C(=O)Nc3ccc(S(=O)(=O)N4CCOCC4)cc32)c2ccccc21 . Output Met Kinase % Inhibition: 23.5

Input CN(C)c1ccc(C=C2C(=O)Nc3ccc(S(=O)(=O)N4CCOCC4)cc32)cc1 . Output Met Kinase % Inhibition: 75.7

Input COc1c(C)cc(C=C2C(=O)Nc3c(Br)cc(Br)cc32)cc1C . Output Met Kinase % Inhibition: 33.7

Input O=C1Nc2ccc(S(=O)(=O)Nc3ccc(C(F)(F)F)cc3)cc2C1=Cc1ccccc1O . Output Met Kinase % Inhibition: 55.4

====

Tested on: MET
Assay info: MET biochemical kinase assay
Parameters: species or system human; concentration or dose not given beside the values
Note to self: values exactly at 40% are MET. So Met Kinase % Inhibition at or above 40% is MET, below is NOT MET.

compound_smiles=COc1cc(C=C2C(=O)Nc3ccc(S(=O)(=O)Nc4ccc(C(F)(F)F)cc4)cc32)cc(OC)c1OC group="NOT MET"
compound_smiles=CC(C)(C)c1cc(C=C2C(=O)Nc3c(Br)cc(Br)cc32)cc([N+](=O)[O-])c1O group=MET
compound_smiles=COc1cc(O)ccc1C=C1C(=O)Nc2ccc(Br)c(C)c21 group=MET

Please check the record O=C1Nc2ccc(I)cc2C1=Cc1ccncc1 and state if its Met Kinase % Inhibition is at or above 40%.
MET

====

Quick list: PDGF Kinase %Inhibition per entry.
Target: PDGF-R (Homo sapiens)
Sequence (P09619 33-1106, species assumed): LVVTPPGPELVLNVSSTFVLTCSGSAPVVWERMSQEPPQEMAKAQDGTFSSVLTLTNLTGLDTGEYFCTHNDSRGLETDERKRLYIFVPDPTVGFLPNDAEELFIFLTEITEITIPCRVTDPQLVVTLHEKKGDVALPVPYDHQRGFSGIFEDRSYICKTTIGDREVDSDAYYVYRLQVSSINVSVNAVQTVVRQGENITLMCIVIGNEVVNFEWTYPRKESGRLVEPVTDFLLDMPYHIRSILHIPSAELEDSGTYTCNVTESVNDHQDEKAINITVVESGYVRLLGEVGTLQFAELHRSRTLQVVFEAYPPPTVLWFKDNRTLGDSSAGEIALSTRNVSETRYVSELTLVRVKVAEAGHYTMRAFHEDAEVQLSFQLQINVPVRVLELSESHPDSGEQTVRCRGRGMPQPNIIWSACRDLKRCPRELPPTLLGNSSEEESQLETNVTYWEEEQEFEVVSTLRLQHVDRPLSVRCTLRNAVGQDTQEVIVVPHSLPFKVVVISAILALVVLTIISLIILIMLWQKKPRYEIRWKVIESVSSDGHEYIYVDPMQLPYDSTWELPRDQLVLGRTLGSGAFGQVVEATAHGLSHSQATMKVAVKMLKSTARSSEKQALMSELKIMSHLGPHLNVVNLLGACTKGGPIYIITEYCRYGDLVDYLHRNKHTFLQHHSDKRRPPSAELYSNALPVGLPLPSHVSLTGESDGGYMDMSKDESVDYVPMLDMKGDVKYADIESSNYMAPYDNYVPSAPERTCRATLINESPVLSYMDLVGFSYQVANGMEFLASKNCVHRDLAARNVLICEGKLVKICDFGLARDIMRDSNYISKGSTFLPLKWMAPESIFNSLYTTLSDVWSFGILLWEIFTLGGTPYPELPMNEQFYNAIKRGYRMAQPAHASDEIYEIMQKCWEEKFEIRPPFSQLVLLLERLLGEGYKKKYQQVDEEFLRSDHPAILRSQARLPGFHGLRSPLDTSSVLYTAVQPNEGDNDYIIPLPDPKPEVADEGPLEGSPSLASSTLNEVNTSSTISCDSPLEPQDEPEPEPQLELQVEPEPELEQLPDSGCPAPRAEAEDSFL
Assay info: PDGF-R ELISA
Type: cell-based
Only the number, expressed in %, is required.

// worked examples, PDGF Kinase %Inhibition included
molecule="O=CN1CCN(c2ccc(C=C3C(=O)Nc4ccc(S(=O)(=O)N5CCOCC5)cc43)cc2)CC1 [10725/F07]" target="PDGF-R (Homo sapiens)" numeric_value=15.0
molecule="Cc1cc(C=C2C(=O)Nc3ccc(Br)c(C)c32)[nH]n1 [10725/C05]" target="PDGF-R (Homo sapiens)" numeric_value=28.9
molecule="N#Cc1cccc(C=C2C(=O)Nc3ccc(CCCl)cc32)c1 [10727/G08]" target="PDGF-R (Homo sapiens)" numeric_value=-7.4
molecule="CNS(=O)(=O)c1ccc2c(c1)C(=Cc1cn(C(C)=O)c3ccccc13)C(=O)N2 [10730/D05]" target="PDGF-R (Homo sapiens)" numeric_value=-1.6
molecule="CN1C(=O)C(=C2C(=O)Nc3ccc(S(=O)(=O)Nc4ccc(C(F)(F)F)cc4)cc32)c2ccccc21 [10731/E10]" target="PDGF-R (Homo sapiens)" numeric_value=21.7
molecule="CNS(=O)(=O)c1ccc2c(c1)C(=Cc1ccc(N3CCN(C=O)CC3)cc1)C(=O)N2 [10725/D07]" target="PDGF-R (Homo sapiens)" numeric_value=18.4

Input COc1cccc(OC)c1C=C1C(=O)Nc2ccc(Br)c(C)c21 [10728/C03] . Output PDGF Kinase %Inhibition: 24.9

Input COc1cc(OC)c(OC)cc1C=C1C(=O)Nc2ccc(S(=O)(=O)Nc3ccc(C(F)(F)F)cc3)cc21 [10730/E03] . Output PDGF Kinase %Inhibition: 14.6

Input COc1ccc2[nH]cc(C=C3C(=O)Nc4c(Br)cc(Br)cc43)c2c1 [10731/A09] . Output PDGF Kinase %Inhibition: -14.4

====

Quick list: Biochem EGFR %Inhibition per entry.
Target: EGFR (Homo sapiens)
Construct: Add 7 ug A431 cell lysate per well (EGFR source); endogenous in cells; host or cells: A431
Sequence (P00533 25-1210): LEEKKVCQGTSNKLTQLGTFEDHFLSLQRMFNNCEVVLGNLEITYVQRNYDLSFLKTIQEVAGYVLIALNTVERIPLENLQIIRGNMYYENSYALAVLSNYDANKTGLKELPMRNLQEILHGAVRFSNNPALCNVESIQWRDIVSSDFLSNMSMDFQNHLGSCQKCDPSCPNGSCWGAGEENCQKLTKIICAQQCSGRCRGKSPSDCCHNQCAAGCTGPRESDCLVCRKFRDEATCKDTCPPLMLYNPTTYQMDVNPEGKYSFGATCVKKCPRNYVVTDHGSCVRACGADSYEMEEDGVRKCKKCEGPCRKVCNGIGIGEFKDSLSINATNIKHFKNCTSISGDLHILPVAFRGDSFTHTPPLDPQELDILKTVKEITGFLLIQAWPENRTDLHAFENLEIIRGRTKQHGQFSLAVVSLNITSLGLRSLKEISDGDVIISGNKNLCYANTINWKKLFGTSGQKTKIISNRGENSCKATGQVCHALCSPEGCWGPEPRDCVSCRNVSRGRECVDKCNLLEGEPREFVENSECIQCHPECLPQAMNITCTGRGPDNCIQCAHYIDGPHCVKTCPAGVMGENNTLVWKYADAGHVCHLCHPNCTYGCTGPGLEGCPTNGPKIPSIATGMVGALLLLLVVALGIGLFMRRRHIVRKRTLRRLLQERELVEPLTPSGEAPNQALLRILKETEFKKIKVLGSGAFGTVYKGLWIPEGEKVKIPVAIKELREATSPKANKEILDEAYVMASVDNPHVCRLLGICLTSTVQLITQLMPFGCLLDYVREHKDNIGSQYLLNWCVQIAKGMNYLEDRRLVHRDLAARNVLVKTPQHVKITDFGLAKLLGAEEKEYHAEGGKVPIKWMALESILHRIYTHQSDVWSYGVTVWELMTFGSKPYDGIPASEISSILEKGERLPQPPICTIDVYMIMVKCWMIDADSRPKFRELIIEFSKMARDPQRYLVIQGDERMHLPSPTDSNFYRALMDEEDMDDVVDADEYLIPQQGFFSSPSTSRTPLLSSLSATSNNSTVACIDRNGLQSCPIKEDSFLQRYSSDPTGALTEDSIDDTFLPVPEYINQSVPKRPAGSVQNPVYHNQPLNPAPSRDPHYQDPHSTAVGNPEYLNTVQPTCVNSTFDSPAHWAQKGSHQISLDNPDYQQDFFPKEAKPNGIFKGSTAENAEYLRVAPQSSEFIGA
Assay info: EGFR ELISA assay (in vitro kinase activity, EGFR captured from A431 cell lysate)
Assay type: biochemical
Design: concentration or dose not given beside the values
Only the number, expressed in %, is required.

// worked examples, Biochem EGFR %Inhibition included
compound="O=C1Nc2ccc(S(=O)(=O)Nc3ccc(C(F)(F)F)cc3)cc2C1=Cc1cc(O)c(O)c(Br)c1 [10723/E04]" target="EGFR (Homo sapiens)" numeric_value=59.8
compound="O=C1Nc2ccc(S(=O)(=O)Nc3ccc(C(F)(F)F)cc3)cc2C1=Cc1ccc2ccccc2c1O [10718/E04]" target="EGFR (Homo sapiens)" numeric_value=16.4
compound="O=C1Nc2c(Br)cc(Br)cc2C1=Cc1ccc(N2CCCC2)cc1 [10729/A10]" target="EGFR (Homo sapiens)" numeric_value=28.7

Noted Biochem EGFR %Inhibition for CNS(=O)(=O)c1ccc2c(c1)C(=Cc1c(F)cc(F)cc1F)C(=O)N2 [10720/D02] , tested on EGFR (Homo sapiens): 11.1

Noted Biochem EGFR %Inhibition for O=C1Nc2ccc(S(=O)(=O)N3CCOCC3)cc2C1=Cc1ccc(O)c(Br)c1 [10734/F09] , tested on EGFR (Homo sapiens): 3.1

Noted Biochem EGFR %Inhibition for O=C1Nc2ccc(CCCl)cc2C1=Cc1ccc(F)cc1Cl [10719/G09] , tested on EGFR (Homo sapiens): -32.8

Noted Biochem EGFR %Inhibition for Cc1c(Br)ccc2c1C(=Cc1cc(O)ccc1O)C(=O)N2 [10727/C10] , tested on EGFR (Homo sapiens): 85.3

Noted Biochem EGFR %Inhibition for CNS(=O)(=O)c1ccc2c(c1)C(=Cc1ccc(OC)c(C(C)(C)C)c1)C(=O)N2 [10732/D05] , tested on EGFR (Homo sapiens): -36.7

Noted Biochem EGFR %Inhibition for CCOC(=O)c1[nH]c(C=C2C(=O)Nc3ccc(Br)c(C)c32)c(C(=O)OC)c1C [10726/C03] , tested on EGFR (Homo sapiens): 29.8

====

Target: EGFR (Homo sapiens)
Construct: Add 7 ug A431 cell lysate per well (EGFR source); endogenous in cells; host or cells: A431
Assay info: EGFR ELISA assay (in vitro kinase activity, EGFR captured from A431 cell lysate)
Format: biochemical
Design: concentration or dose not given beside the values
Quantity kind: Biochem EGFR %Inhibition
Output should be the measured figure followed by the unit it is expressed in.

// worked examples, Biochem EGFR %Inhibition included
compound_smiles=COc1c(C(C)(C)C)cc(C=C2C(=O)Nc3ccc(S(=O)(=O)Nc4ccc(C(F)(F)F)cc4)cc32)cc1C(C)(C)C result=45.4%
compound_smiles=O=C1Nc2c(Br)cc(Br)cc2C1=Cc1ccc(C(=O)O)cc1 result=22.4%
compound_smiles=CC(C)c1cc(C=C2C(=O)Nc3ccc(S(=O)(=O)Nc4ccc(C(F)(F)F)cc4)cc32)cc(C(C)C)c1Oc1ccccc1 result=-10.6%
compound_smiles=COc1c(I)cc(C=C2C(=O)Nc3ccc(CCCl)cc32)cc1C(C)(C)C result=-33.7%

Input O=C1Nc2ccc(S(=O)(=O)Nc3ccc(C(F)(F)F)cc3)cc2C1=Cc1ccc(Br)o1 . Output Biochem EGFR %Inhibition: 5.5%

Input O=C1Nc2c(Br)cc(Br)cc2C1=Cc1ccco1 . Output Biochem EGFR %Inhibition: 41.5%

Input O=C1Nc2ccc(I)cc2C1=Cc1ccc(F)cc1F . Output Biochem EGFR %Inhibition: -4.9%

Input O=C1Nc2ccc(S(=O)(=O)N3CCOCC3)cc2C1=Cc1ccc(O)c(O)c1O . Output Biochem EGFR %Inhibition: 70.4%

====

System: MET
Assay info: MET biochemical kinase assay
Set-up: species or system human; concentration or dose not given beside the values
Quantity kind: Met Kinase % Inhibition (%)
Only the number, expressed in %, is required.

compound=O=C1Nc2ccc(S(=O)(=O)Nc3ccc(C(F)(F)F)cc3)cc2C1=Cc1ccc(-c2ccccc2Cl)o1 unit_descriptor=% numeric_value=37.1
compound=CNS(=O)(=O)c1ccc2c(c1)C(=Cc1ccc(OC)c(OC)c1OC)C(=O)N2 unit_descriptor=% numeric_value=34.7
compound=CNS(=O)(=O)c1ccc2c(c1)C(=Cc1coc3ccccc3c1=O)C(=O)N2 unit_descriptor=% numeric_value=50.6
compound=Cc1c(Br)ccc2c1C(=Cc1cc(Cl)ccc1O)C(=O)N2 unit_descriptor=% numeric_value=90.7
compound=O=C1Nc2ccc(CCCl)cc2C1=Cc1ccc(F)cc1 unit_descriptor=% numeric_value=4.7

Input COc1ccc2[nH]cc(C=C3C(=O)Nc4ccc(Br)c(C)c43)c2c1 . Output Met Kinase % Inhibition: 22.7

Input COc1ccc2ccccc2c1C=C1C(=O)Nc2ccc(S(=O)(=O)Nc3ccc(C(F)(F)F)cc3)cc21 . Output Met Kinase % Inhibition: 11.7

Input O=C1Nc2ccc(S(=O)(=O)N3CCOCC3)cc2C1=Cc1coc2ccccc2c1=O . Output Met Kinase % Inhibition: 17.9

Input CCc1ccc(C=C2C(=O)Nc3ccc(CCCl)cc32)o1 . Output Met Kinase % Inhibition: 62.8

Input CC(C)(C)c1cc(C=C2C(=O)Nc3c(Br)cc(Br)cc32)ccc1O . Output Met Kinase % Inhibition: 23.0

Input COc1ccc(C=C2C(=O)Nc3ccc(CCCl)cc32)cc1 . Output Met Kinase % Inhibition: 11.8

Input O=C1Nc2c(Br)cc(Br)cc2C1=Cc1ccncc1 . Output Met Kinase % Inhibition: 80.3

Input CSc1ccc(C=C2C(=O)Nc3c(Br)cc(Br)cc32)s1 . Output Met Kinase % Inhibition: 57.2

Input COc1ccc(C=C2C(=O)Nc3ccc(S(=O)(=O)Nc4ccc(C(F)(F)F)cc4)cc32)c2ccccc12 . Output Met Kinase % Inhibition: 27.5
